- test.method.notes: In vitro permeability in Caco-2 cells
- Format: in vitro ADME
- condition.details: human, Caco-2, with none (no P-gp inhibitor); no P-gp inhibitor, pH 7.4/7.4, Table 7; read-out: PAPP apical to basolateral (A-B)
Structures can show the parent of a compound that is named as a salt.
parameter: Papp A→B at 2 h, 1 μM (×10⁻⁶ cm/s)
The reply should be a number in ×10⁻⁶ cm/s, with the unit left off.

Noted for O=C(NCCN1CCCC1)c1cc(-c2ccc(CN3CCOCC3)cc2)nc2ccc(F)cc12 [M1, succinate salt] : its Papp A→B at 2 h, 1 μM reads 2.97

###

- test.method.notes: In vitro permeability in Caco-2 cells
- Type: in vitro ADME
- condition.details: human, Caco-2, with PYRO 0.3 μM; PYRO 0.3 μM, pH 7.4/7.4, Table 8
Structures can show the parent of a compound that is named as a salt.
parameter: Papp at 2 h, 1 μM

Noted for O=C(NCCN1CCCC1)c1cc(-c2ccc(CN3CCOCC3)cc2)nc2ccc(F)cc12 [M1, succinate salt] : its Papp at 2 h, 1 μM reads 97.4 nm/s
